Target: Rho-A (Homo sapiens)
Sequence (P61586 1-190): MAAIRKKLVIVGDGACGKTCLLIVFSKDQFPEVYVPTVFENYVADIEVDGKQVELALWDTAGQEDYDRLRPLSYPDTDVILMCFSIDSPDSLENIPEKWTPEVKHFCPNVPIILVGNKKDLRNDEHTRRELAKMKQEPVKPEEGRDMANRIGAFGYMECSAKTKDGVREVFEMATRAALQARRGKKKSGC
Test: Ras GTP binding domain inhibition assay (Cy3-GTP/Cy5-GTP competition)
Details: without SOS, read-out: Rho-A: % inh.

Compound	Target entity	inhibition at 20 µM
Oc1nc(-c2nccn2Cc2ccccn2)nc2c(-c3ccccn3)csc12 [drawing 986]	Rho-A (Homo sapiens)	51 to 75%
Cn1ccnc1-c1nc(O)c(O)c(C(=O)NC2CCC2)n1 [drawing 960]	Rho-A (Homo sapiens)	26 to 50%
CO[C@H]1CCC(Nc2nc(-c3nccn3C)nc3sc(-c4ccn(C)n4)c(-c4ccccc4)c23)C1 (stereo partly drawn) [drawing 995]	Rho-A (Homo sapiens)	51 to 75%

----------
Target: Rho-A (Homo sapiens)
Assay: Ras GTP binding domain inhibition assay (Cy3-GTP/Cy5-GTP competition)
Conditions: without SOS, read-out: Rho-A: % inh.

Compound	inhibition at 20 µM
CCOc1cccc(Nc2nc(-c3ccccn3)nc(O)c2OC)c1 [drawing 1017]	51 to 75%
COCCNc1nc(-c2nccn2C)nc2sc(-c3cccc(OC)c3Cl)c(-c3ccc(OC)cc3)c12 [drawing 1009]	26 to 50%
CO[C@H]1CC[C@@H](Nc2nc(-c3nccn3C)nc3sc(C(=O)N4CCOCC4)c(-c4ccccc4)c23)C1 [drawing 1062]	76 to 100%
COc1c(O)nc(-c2ccccn2)nc1Oc1cnn(C)c1 [drawing 938]	51 to 75%
CO[C@H]1CC[C@@H](Nc2nc(-c3nccn3C)nc3sc(-c4ccn(C(C)C)n4)c(C)c23)C1 [drawing 1054]	76 to 100%
CO[C@H]1C[C@@H](Nc2nc(-c3nccn3C)nc3sccc23)C1 [drawing 1038]	76 to 100%
COc1cccc(Oc2nc(-c3ccccn3)nc(O)c2OC)c1 [drawing 936]	51 to 75%
COCCNc1nc(-c2cn(C)cn2)nc2sc(-c3cccc(OC)c3Cl)c(-c3ccc(OC)cc3)c12 [drawing 932]	51 to 75%
COc1ncccc1-c1sc2nc(-c3nccn3C)nc(N3CCC(OC)C3)c2c1-c1ccccc1 (centres unmarked) [drawing 978]	51 to 75%
CO[C@H]1C[C@@H](Nc2nc(-c3nccn3C)nc3sc(-c4cnn(C)c4)c(-c4ccccc4)c23)C1 [drawing 1027]	76 to 100%
COCCn1ccnc1-c1nc(O)c2scc(-c3ccc(OCC(C)C)nc3)c2n1 [drawing 1033]	76 to 100%
COc1nc(-c2ccccn2)nc(Nc2cnn(C)c2)c1OC [drawing 929]	0%
COc1cccc(-c2csc3c(O)nc(-c4nccn4C)nc23)c1Cl [drawing 1013]	1 to 25%
CN(Cc1ccccc1)C(=O)c1nc(-c2ccccn2)nc(O)c1O [drawing 934]	51 to 75%

----------
Target: Rac-1 (Homo sapiens)
Assay: Ras GTP binding domain inhibition assay (Cy3-GTP/Cy5-GTP competition)
Settings: without SOS, read-out: Rac-1: % inh.
Recorded metric: inhibition at 20 µM

Compound	Target entity	Recorded metric	Result
COC1CCN(c2nc(-c3nccn3C)nc3sc(-c4cnn(C)c4)c(-c4ccccc4)c23)C1 (stereo not drawn) [drawing 970]	Rac-1 (Homo sapiens)	inhibition at 20 µM	0%
COCCNc1nc(-c2nccn2C)nc2sc(-c3cccc(OC)c3Cl)c(-c3ccccc3)c12 [drawing 1007]	Rac-1 (Homo sapiens)	inhibition at 20 µM	51 to 75%
CO[C@H]1CC[C@@H](Nc2nc(-c3nccn3C)nc3sc(-c4ccn(C(C)C)n4)c(-c4ccccc4)c23)C1 [drawing 1047]	Rac-1 (Homo sapiens)	inhibition at 20 µM	51 to 75%
CO[C@H]1CC[C@@H](Nc2nc(-c3nccn3C)nc3sc(-c4ccn(C)n4)c(C)c23)C1 [drawing 1050]	Rac-1 (Homo sapiens)	inhibition at 20 µM	76 to 100%
COCCNC(=O)c1sc2nc(-c3nccn3C)nc(N[C@@H]3CC[C@H](OC)C3)c2c1-c1ccccc1 [drawing 1060]	Rac-1 (Homo sapiens)	inhibition at 20 µM	76 to 100%
O=C(NC1CCCC1)c1nc(-c2ccccn2)nc(O)c1O [drawing 947]	Rac-1 (Homo sapiens)	inhibition at 20 µM	51 to 75%
COc1cccc(-c2sc3nc(-c4nccn4C)nc(NC4CCC(OC)C4)c3c2-c2ccccc2)c1F (stereo not drawn) [drawing 1018]	Rac-1 (Homo sapiens)	inhibition at 20 µM	51 to 75%
COc1cccc(Cn2ccnc2-c2nc(O)c3scc(-c4ccc(OCC(C)C)nc4)c3n2)c1 [drawing 1035]	Rac-1 (Homo sapiens)	inhibition at 20 µM	76 to 100%
COCCn1ccnc1-c1nc(O)c2scc(-c3ccccn3)c2n1 [drawing 987]	Rac-1 (Homo sapiens)	inhibition at 20 µM	76 to 100%
CO[C@H]1C[C@@H](Nc2nc(-c3nccn3C)nc3sccc23)C1 [drawing 1038]	Rac-1 (Homo sapiens)	inhibition at 20 µM	76 to 100%
Cn1ccnc1-c1nc(O)c2scc(-c3ccccn3)c2n1 [drawing 988]	Rac-1 (Homo sapiens)	inhibition at 20 µM	51 to 75%
CC(C)CNC(=O)c1nc(-c2ccccn2)nc(O)c1O [drawing 946]	Rac-1 (Homo sapiens)	inhibition at 20 µM	51 to 75%
CO[C@H]1C[C@@H](Nc2nc(-c3nccn3C)nc3sc(-c4ccn(C)n4)c(C)c23)C1 [drawing 1049]	Rac-1 (Homo sapiens)	inhibition at 20 µM	51 to 75%
COc1cccc(-c2sc3nc(-c4nccn4C)nc(N4CCC(OC)C4)c3c2-c2cscn2)c1 (stereo not drawn) [drawing 1002]	Rac-1 (Homo sapiens)	inhibition at 20 µM	0%
COC1CCN(c2nc(-c3nccn3C)nc3sc(-c4ccc(CO)cc4)c(-c4ccccc4)c23)C1 (stereo not drawn) [drawing 954]	Rac-1 (Homo sapiens)	inhibition at 20 µM	0%
